- Test system: LXFL 529
- TEST_METHOD_NOTES: NCI tumour cell line growth inhibition, 48 h
Active and inactive are the calls of the source. No stated cut-off is given here; in the data, active = GI50 up to about 1.1 µM and inactive = higher.
VALUE_KIND: GI50

[
  {
    "COMPOUND": "COc1ccc2c(c1)[n+]([O-])c(-c1nc3ccccc3s1)c(N)[n+]2[O-]",
    "RESULT": "58.1 µM (inactive)"
  },
  {
    "COMPOUND": "CCOC1c2nc3ccccc3nc2-c2ccccc2N1C(C)=O (centres undefined)",
    "RESULT": "70.6 µM (inactive)"
  },
  {
    "COMPOUND": "Nc1ccc(C(=O)NN2C(=O)C(Cl)C2c2ccc([N+](=O)[O-])cc2)cc1 (centres undefined)",
    "RESULT": "4.86 µM (inactive)"
  },
  {
    "COMPOUND": "Clc1ccc(C2=Nc3ccccc3SC(c3cccs3)C2)cc1 (centres undefined)",
    "RESULT": "17.5 µM (inactive)"
  }
]
